Test system: MS2 coat protein
Test Protocol: apparent Kd, MS2 coat protein; higher = weaker binding; RNA-MaP array; theophylline 2 mM where present
Details: designed as: ON switch for theophylline; no ligand
# binarize apparent Kd: threshold 90 nM inclusive, high side Met, low side Not met

// below: answered sequences
* GCACUACAUGAGGAUCACCCAUGUGCAGAUACCAGAGGUGUAUGCCUCCCUUGGCAGCUGCGUCGCUCUGGAAGCCUAUUGGUUU | Not met
* AUGUCGUUGAAUAUAGCGGCUUGGUGUGAUACCAGAAUGAUCUAAUUCCCUUGGCAGCAUUACAUGAGGAUCACCCAUGUUCAGG | Not met
* UCCUUAGAUACUGAUACCAGACUACAGUAAACAUGAGGAUCACCCAUGUUUGAUCACUAAGUCCCUUGGCAGCAGGUACAUGGGA | Not met
* AUUAAUUGUCGUGAUACCAGACAUACAUGAGGAUCACCCAUGUUAAGUAACAUUUUUUAUGUCCCUUGGCAGCACUUUUUAAUUA | Not met
* ACACAUGAGGAUCACCCAUGUUCAAUAGAUACCAGUGAUACGGUGCACCCUUGGCAGCUGUUGCUGAGUGAUGGUUCCCUCGGUA | Not met

Ask: # bool: apparent Kd of GGAAUUAAGACUGAUACCAGUCAAGAUAAUCAUAAGAAUAAACAUGAGGAUCACCCAUGUGACCCUUGGCAGCAGACUAAUACCG >= 90 nM
Reply: Not met

Ask: # bool: apparent Kd of ACUCGGUGUUUGUUGCUCCGAGUACGUGAUACCAGUUAAUUUUAUGGCCCUUGGCAGCAUGGGACAUGAGGAUCACCCAUGUUUA >= 90 nM
Reply: Met

====

For each entry below, report its apparent Kd value.
System: MS2 coat protein
Test Protocol: apparent Kd, MS2 coat protein; higher = weaker binding; RNA-MaP array; FMN 200 µM where present
Details: designed as: ON switch for flavin mononucleotide; no ligand
Lab note: write values as number then unit, every time.

Would you please look over these solved cases?
- AAAACAUGAGGAUCACCCAUGUAAAGAUCGGUUGAUGAAAGUGAGGAUAUACAAAAUUUUAUGGAGUAGAAGGCACUGGGUUGA: 67.4 nM
- ACGGUGGUCACAGGAUAUCCGGCCCGCGUGCUCGGAGAAGGGUGACUCAGAACCACAUGAGGAUCACCCAUGUGCCUUGCCGUA: 122 nM
- ACCCGGGCUAACAUGAGGAUCACCCAUGUGUUAUACUUAAUAUAGGAUAUGUUUAUACUUUUUGGGCAGAAGGAUGGCCCGGGU: 80.1 nM
- AAAGAAGCACUUGGAACCGGACAAUGAGAAGGCCACGCACAUGAGGAUCACCCAUGUAAAGCUAUGGAGGAUAUCAUGAUGGAU: 46.4 nM
- UAAAUACAUGAGGAUCACCCAUGUCAAAAGACAUGAGGAUAUGUACAGUCUUCGGUCUGUACAGAAGGCAUGAAUA: 464 nM

Parameters: items (list). Returns: apparent Kd for each item.
1. UGUUGUAUUACAGGAUAUCUAUUGUUUUUAAUUAGAGAAGGGUAUUCACAUGAGGAUCACCCAUGUAUAUACGAGGAAGUUGUG
2. GUGGUCAGACAUGAGGAUCACCCAUGUGGAAUAAAUAAGGUUUAGGAUAUGGAAUAUAGGAUAUACCAGAAGGAAGGGUUGGUG

Reply:
50.5 nM
125 nM

Parameters: items (list). Returns: apparent Kd for each item.
1. GGGUACAUCGGAGGAUAUCAUGUAGACACAUGAGGAUCACCCAUGUCGAUGGAGACAUCGGAGAUUGAGAAGGCCGAUGUACCG
2. GGUCCGUAACAGAAGGCCGUAACUGGUAGUGGCGGAGGAUAUGUGGGCGGCCCUUGACAACAUGAGGAUCACCCAUGUAUGUAA

Reply:
435 nM
335 nM

====

Tested on: MS2 coat protein
Test Protocol: apparent Kd, MS2 coat protein; higher = weaker binding; RNA-MaP array
Details: ligand present: flavin mononucleotide; designed as: OFF switch for flavin mononucleotide
# binarize apparent Kd: threshold 30 nM inclusive, high side 1, low side 0

// below: answered sequences
- GCGCCUCCCAAGGAUAUAACGCGUCUCUAAGGAUUAGAAGGUGGGACAUGAGGAUCACCCAUGUGACUCCUUUA: 0
- UACAAGCAAGGAUAUACAUGAGGAUCACCCAUGUGGAGAGCCAGCAAAUUCCGGAAAUGUAGAAGGUGCCACAA: 1
- AGGGUACAUGAGGAUCACCCAUGUUAGGAUAUGUCCGGUACGGCCGCCGUACCAGGCAACAGAAGGAACACAGC: 0
- ACUGCUGUAGGAUAUCAACGAAAUAACAUGAGGAUCACCCAUGUGGCAGUGAUCAGCAGUUGAGAAGGACAUGGCC: 0

Ask: # bool: apparent Kd of AGCAGAGCCUAGAAGGCAGUGCAGACCGCGCACUGAGGAUAUAGACUUUAAGAUUGUACAUGAGGAUCACCCAUGUUGAGUGGG >= 30 nM
Reply: 1

Ask: # bool: apparent Kd of AGGGCACAUGAGGAUCACCCAUGUAAGGAUAUGGACUUUUUUGCUGUAGUAAUCAUCUCCAGAAGGUACGUCUU >= 30 nM
Reply: 0

Ask: # bool: apparent Kd of UCAUGCUGAGGAUAUACAUGAGGAUCACCCAUGUACAGAAUAAGGGAGUGCCAUCAAAGUAGAAGGCAGGACGU >= 30 nM
Reply: 0

Ask: # bool: apparent Kd of CCCGGUGACUAGAAGGCGCCACAUGAGGAUCACCCAUGUAUCAAAGACCGGUGAUUGCCGACGGGCGAGGAUAUAGGUGCGACG >= 30 nM
Reply: 0

Ask: # bool: apparent Kd of UCUAACCUAGGAUAUACAUGCCUUGCGUAGCACAUCCGUUUACAUGAGGAUCACCCAUGUAGAAGGAGGGACGG >= 30 nM
Reply: 0

Ask: # bool: apparent Kd of CCGCGCGUAGGAUAUACUAGUGUAUCAGUCGGUAUUGGAAAACAUGAGGAUCACCCAUGUAGAAGGACGCUAAU >= 30 nM
Reply: 0

Ask: # bool: apparent Kd of CUAUACGUAACAUGAGGAUCACCCAUGUUCAGGUGACCAGGAAGAAGGGCUAGCAGAGUAGUUCAGCAGGAUAUUCGAUUAGAC >= 30 nM
Reply: 0

Ask: # bool: apparent Kd of GGAAUGUCAGGAUAUCUAAUUACCCAGAAAGAUAUGGAACCAGAGAAGGGACAUGAGGAUCACCCAUGUAUAAC >= 30 nM
Reply: 0

Ask: # bool: apparent Kd of ACCGAUCGAGGAUAUACAGAACAAAAGAACAUGACGAAGAAACAUGAGGAUCACCCAUGUAGAAGGCGAAAAGA >= 30 nM
Reply: 0

Ask: # bool: apparent Kd of CGCUUGUUCAUAGGAUAUGCUAGGUAACUCAUGGUGAGUUGGGGAACAUGAGGAUCACCCAUGUGGCAGAAGGAUGGCGUUAAU >= 30 nM
Reply: 1

====

For each entry below, report its apparent Kd value.
System: MS2 coat protein
Test Protocol: apparent Kd, MS2 coat protein; higher = weaker binding; RNA-MaP array
Details: designed as: OFF switch for theophylline; no ligand
Give bare numbers, in nM.

- AAUCGCCUGGGUCGCAUCCUUGCUCCGGAUACCAGUCAAUAGUUGGACCCUUGGCAGCCGUAGACAUGAGGAUCACCCAUGUAUA: 53.8
- GUCACACAGUAGGAUACCAGCGUGGCUUAUCCCUGAUCGUACAUGAGGAUCACCCAUGUCCGCCCUUGGCAGCCUCCUGCUCGGA: 12.7
- GCUGCCGUCGGUGAAAACUCCCAUGCAGAUACCAGCGCAUUCCGCCGCCCUUGGCAGCUGCAUACAUGAGGAUCACCCAUGUGUU: 84.4

Continue with the sequence presented below.
Ask: Provide apparent Kd, tested on MS2 coat protein, for CUACAUGGGCUCGAUACCAGUCAGCUCUCGCGUCUCUCAGACAUGAGGAUCACCCAUGUUGACCCUUGGCAGCGACGAUGUAGGC .
Reply: 79.8

====

For each entry below, report its apparent Kd value.
Tested on: MS2 coat protein
Test Protocol: apparent Kd, MS2 coat protein; higher = weaker binding; RNA-MaP array
Details: designed as: OFF switch for flavin mononucleotide; no ligand
Lab note: write values as number then unit, every time.

* AGGACGUCAGGAUAUUCUAUGUGGCUCUAAUGGCCGACCAUGAAGAAGGGACAUGAGGAUCACCCAUGUGAGCU | 25.7 nM

Parameters: items (list). Returns: apparent Kd for each item.
1. GAUAGAUAUGUAAGGAUAUGUGACGCGCUUGAGAAACAGAAGGAACAUGAGGAUCACCCAUGUAGAUGUUGUGA
2. AUAAUAACAUGAGGAUCACCCAUGUCCUCUUGGCGGCGGCUUAGAAGGUCGACUACUUUUCUUUCGAAGGAUAUAACCUGUUCU

Reply:
11.2 nM
913 nM

Parameters: items (list). Returns: apparent Kd for each item.
1. UGACUCUCUGUCAGGAUAUAACAAGCUACAGUUUAUUAGAAGGGACAUGAGGAUCACCCAUGUUGAACACCCGA
2. GUAACGUGCAAAGGAUAUAUACAUGAGGAUCACCCAUGUCGGAAUGAGAUCAAGGUCGCUCGCCUAUAGAAGGUUGGCGCUACU
3. AAGAAAUUCUCACAUGAGGAUCACCCAUGUCCACACGACUAGAGAAGGGCCUUCUACGUGCACUGGCAGGAUAUCUAACCGGGA
4. CCAGCAUGGCAGACCAUACAUGAGGAUCACCCAUGUAGAAGCUAGGAUAUAAAUGUAACACACUAUUAGAAGGAGCGCUACCUU

Reply:
1. 7.94 nM
2. 86.7 nM
3. 140 nM
4. 8.55 nM
